target.of.assay: NR2B (Rattus norvegicus (Rat))
assay.overview: NR2B rat cortical neuron calcium influx assay
measurement.conditions: rat cortical neurons, glutamate and glycine stimulated calcium influx
measured.attribute: pIC50
The meaning of pIC50 here: minus log10 of the concentration in molar units.

Worked set:
>  <compound>
O=c1[nH]c2ccc([C@H](O)CN3C[C@H]4C[C@H](Oc5ccccc5)C[C@@]4(O)C3)cc2o1 (single isomer, unassigned) [Example 39B]

>  <pIC50>
7.07

$$$$
>  <compound>
O=C1CCc2cc([C@@H](O)CN3C[C@@H]4C[C@@H](Oc5cccc(F)c5F)C[C@]4(O)C3)ccc2N1 (single isomer, unassigned) [Example 24C]

>  <pIC50>
10.68

$$$$

Turning now to a further record.
The compound listed as O=C1Nc2ccc([C@@H](O)CN3C[C@H]4C[C@H](Oc5ccccc5)C[C@@]4(O)C3)c(F)c2CO1 (single isomer, unassigned) [Example 34A] shows pIC50 equal to 8.57

###

target.of.assay: UniProt P08183
Sequence (P08183 whole entry): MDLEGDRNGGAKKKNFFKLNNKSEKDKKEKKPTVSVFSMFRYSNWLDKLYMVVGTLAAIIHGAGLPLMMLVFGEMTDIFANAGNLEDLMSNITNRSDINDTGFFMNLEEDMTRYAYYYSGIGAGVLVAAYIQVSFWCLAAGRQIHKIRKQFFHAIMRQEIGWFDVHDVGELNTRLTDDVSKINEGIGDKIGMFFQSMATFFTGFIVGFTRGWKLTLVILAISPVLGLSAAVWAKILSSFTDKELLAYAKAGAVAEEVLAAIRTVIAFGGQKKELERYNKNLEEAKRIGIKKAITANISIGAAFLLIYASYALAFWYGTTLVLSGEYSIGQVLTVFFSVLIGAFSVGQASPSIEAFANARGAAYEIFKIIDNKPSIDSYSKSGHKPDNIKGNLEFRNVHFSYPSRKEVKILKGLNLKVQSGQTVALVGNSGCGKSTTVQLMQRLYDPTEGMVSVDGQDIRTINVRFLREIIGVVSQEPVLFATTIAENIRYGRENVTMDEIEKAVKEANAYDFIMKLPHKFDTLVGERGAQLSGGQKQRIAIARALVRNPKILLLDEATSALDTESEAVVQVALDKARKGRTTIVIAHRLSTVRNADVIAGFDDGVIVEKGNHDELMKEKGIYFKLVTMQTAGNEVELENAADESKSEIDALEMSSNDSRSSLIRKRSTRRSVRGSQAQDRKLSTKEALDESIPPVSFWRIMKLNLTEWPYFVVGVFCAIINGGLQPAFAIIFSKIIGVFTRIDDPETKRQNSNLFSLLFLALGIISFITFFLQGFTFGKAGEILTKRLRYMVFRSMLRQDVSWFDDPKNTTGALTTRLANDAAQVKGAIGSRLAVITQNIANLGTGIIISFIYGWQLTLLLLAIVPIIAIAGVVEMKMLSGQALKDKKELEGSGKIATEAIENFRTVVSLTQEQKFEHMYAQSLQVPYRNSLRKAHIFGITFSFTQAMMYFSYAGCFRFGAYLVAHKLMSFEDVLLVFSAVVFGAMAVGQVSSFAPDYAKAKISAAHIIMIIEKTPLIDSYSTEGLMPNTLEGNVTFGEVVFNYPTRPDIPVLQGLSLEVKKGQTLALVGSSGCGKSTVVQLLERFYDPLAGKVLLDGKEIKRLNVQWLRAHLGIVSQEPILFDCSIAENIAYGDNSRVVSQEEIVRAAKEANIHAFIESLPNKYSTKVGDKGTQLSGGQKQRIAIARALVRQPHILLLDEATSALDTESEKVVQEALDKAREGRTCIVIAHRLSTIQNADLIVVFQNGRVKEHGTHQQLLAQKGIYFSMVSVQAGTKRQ
assay.overview: MDCK-MDR1 permeability / efflux assay
Type: in vitro ADME
measurement.conditions: dog, MDCK-MDR1, pH 7.4, efflux ratio, read-out: MDCK-MDR1 ER
Each record here notes measured efflux ratio at 120 min, 10 μM.
Kindly provide the number alone.

// solved cases for efflux ratio at 120 min, 10 μM follow
>  <compound>
O=C1Nc2cc(F)c([C@@H](O)CN3C[C@H]4C[C@H](Oc5ccccc5)C[C@@]4(O)C3)cc2CO1 (single isomer, unassigned) [Example 36A]

>  <efflux ratio at 120 min, 10 μM>
4.04

$$$$
>  <compound>
O=C1CCc2cc([C@@H](O)CN3C[C@H]4C[C@H](Oc5ccccc5)C[C@@]4(O)C3)cc(F)c2N1 (single isomer, unassigned) [Example 31A]

>  <efflux ratio at 120 min, 10 μM>
1.63

$$$$
>  <compound>
O=C1Nc2c(F)cc([C@H](O)CN3C[C@H]4C[C@H](Oc5ccccc5)C[C@@]4(O)C3)cc2CS1 (single isomer, unassigned) [Example 16B]

>  <efflux ratio at 120 min, 10 μM>
0.75

$$$$

Value of efflux ratio at 120 min, 10 μM reported for the compound O=C1CCCc2cc([C@H](O)CN3C[C@H]4C[C@H](Oc5ccccc5)C[C@@]4(O)C3)ccc2N1 (single isomer, unassigned) is 2.07

###

Attribute: IC50
target.of.assay: NR2B (Rattus norvegicus (Rat), UniProt Q00960)
Sequence (Q00960 27-1482, other chains not shown): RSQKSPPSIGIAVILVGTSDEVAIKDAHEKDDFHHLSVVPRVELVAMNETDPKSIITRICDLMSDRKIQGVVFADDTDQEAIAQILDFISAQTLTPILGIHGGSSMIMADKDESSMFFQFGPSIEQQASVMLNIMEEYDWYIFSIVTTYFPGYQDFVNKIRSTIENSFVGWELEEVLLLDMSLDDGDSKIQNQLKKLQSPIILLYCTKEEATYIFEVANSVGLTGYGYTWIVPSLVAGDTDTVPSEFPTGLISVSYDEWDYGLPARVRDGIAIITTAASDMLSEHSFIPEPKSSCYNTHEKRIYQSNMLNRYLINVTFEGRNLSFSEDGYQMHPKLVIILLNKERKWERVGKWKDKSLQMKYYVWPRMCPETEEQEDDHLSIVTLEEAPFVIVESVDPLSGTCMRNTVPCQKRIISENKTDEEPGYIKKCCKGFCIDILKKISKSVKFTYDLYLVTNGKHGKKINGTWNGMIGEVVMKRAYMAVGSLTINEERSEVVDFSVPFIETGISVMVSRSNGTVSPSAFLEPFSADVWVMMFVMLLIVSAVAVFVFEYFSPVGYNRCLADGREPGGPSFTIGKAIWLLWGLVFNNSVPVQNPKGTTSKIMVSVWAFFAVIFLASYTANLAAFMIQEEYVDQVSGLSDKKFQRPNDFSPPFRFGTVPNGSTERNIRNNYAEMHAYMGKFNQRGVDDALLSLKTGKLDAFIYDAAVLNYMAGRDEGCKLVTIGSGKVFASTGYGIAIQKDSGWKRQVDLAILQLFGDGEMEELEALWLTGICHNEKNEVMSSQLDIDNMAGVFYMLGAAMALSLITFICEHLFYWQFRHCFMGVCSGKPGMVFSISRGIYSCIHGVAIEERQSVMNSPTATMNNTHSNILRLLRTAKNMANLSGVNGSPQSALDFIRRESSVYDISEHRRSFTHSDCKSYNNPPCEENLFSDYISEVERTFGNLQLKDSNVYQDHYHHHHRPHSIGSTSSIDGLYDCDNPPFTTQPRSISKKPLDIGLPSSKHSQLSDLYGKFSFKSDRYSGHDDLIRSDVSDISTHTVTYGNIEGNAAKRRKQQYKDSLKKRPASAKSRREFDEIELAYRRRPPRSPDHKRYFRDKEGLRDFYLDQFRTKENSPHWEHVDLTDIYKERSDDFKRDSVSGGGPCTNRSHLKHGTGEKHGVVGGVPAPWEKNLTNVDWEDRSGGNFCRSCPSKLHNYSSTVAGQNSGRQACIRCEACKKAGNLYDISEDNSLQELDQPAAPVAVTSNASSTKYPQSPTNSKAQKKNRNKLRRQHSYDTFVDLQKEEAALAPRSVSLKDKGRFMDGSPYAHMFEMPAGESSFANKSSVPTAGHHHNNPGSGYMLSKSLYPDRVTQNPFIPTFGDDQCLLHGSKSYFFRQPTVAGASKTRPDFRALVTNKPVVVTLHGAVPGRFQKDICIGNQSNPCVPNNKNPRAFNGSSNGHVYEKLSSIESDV
assay.overview: NR2B rat cortical neuron calcium influx assay
measurement.conditions: rat cortical neurons, glutamate and glycine stimulated calcium influx
Give your result in nM as a bare value.

>  <compound>
O=C1CCCc2cc([C@H](O)CN3C[C@H]4C[C@H](Oc5ccccc5)C[C@@]4(O)C3)ccc2N1 (single isomer, unassigned)

>  <target.of.assay>
NR2B (Rattus norvegicus (Rat), UniProt Q00960)

>  <readout.units>
nM

>  <IC50>
1.9

$$$$
>  <compound>
O=C1CCc2cc([C@H](O)CN3C[C@H]4C[C@H](Oc5ccccc5F)[C@H](O)[C@@]4(O)C3)cc(F)c2N1 (single isomer, unassigned) [Example 29B]

>  <target.of.assay>
NR2B (Rattus norvegicus (Rat), UniProt Q00960)

>  <readout.units>
nM

>  <IC50>
11

$$$$

With those in mind, consider the next compound.
Documented IC50 of O=c1[nH]c2ccc([C@@H](O)CN3C[C@H]4C[C@H](Oc5ccccc5)C[C@@]4(O)C3)cc2s1 (single isomer, unassigned) [Example 17A] : 0.013
